biological target: Histamine H3 receptor (Rattus norvegicus); test: Histamine H3 receptor competition binding with [^3H]NAMHA in rat cerebral cortical membranes; conditions: rat cerebral cortical membranes; ~1 nM [^3H]NAMHA; 40 minutes at 25° C.; Ki=IC50/(1+([ligand]/[Kd]); read-out: Ki
Sequence (Q9QYN8 whole entry): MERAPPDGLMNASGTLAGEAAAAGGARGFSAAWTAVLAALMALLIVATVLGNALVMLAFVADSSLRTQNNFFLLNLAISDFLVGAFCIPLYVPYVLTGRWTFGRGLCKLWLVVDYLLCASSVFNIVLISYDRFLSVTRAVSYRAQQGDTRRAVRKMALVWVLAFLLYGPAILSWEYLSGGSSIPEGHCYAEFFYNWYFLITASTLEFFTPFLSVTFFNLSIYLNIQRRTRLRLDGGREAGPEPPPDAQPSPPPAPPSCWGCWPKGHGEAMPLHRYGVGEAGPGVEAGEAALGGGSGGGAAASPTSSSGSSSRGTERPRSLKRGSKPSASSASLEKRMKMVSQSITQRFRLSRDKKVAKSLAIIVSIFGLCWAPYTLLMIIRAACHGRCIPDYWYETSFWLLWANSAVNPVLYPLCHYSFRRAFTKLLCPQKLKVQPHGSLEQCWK
Where a name gives a salt, the structure may show the parent alone.
Hi there, I'd appreciate the recorded pKi for every entry that follows.
Worth noting: pKi values are minus log10 of concentrations stated in mol/L.

Which pKi reading was recorded for the molecule O/N=C/C1CC1c1c[nH]cn1 (stereo not drawn) ?
7.64

Next entry: NC(=O)[C@@H]1C[C@H]1c1c[nH]cn1 (relative stereo) [Example 2, Trifluoroacetic Acid Salt]
6.90

Next entry: OC[C@@H]1C[C@H]1c1c[nH]cn1 (relative stereo) [Example 6, Trifluoroacetic Acid Salt]
6.58

Next entry: N#C[C@@H]1C[C@H]1c1c[nH]cn1 (relative stereo) [Example 1, Trifluoroacetic Acid Salt]
7.70

Next entry: CNC(=N)[C@@H]1C[C@H]1c1c[nH]cn1 (relative stereo)
6.94

Next entry: N=C(N)[C@@H]1C[C@H]1c1c[nH]cn1 (relative stereo) [Example 3, Di-trifluoroacetic Acid Salt]
8.17
